# test details: clinical
# experimental setup: human, plasma, po, 850 mg
value type: AUC(0-inf) (ng·h/mL)
Unit ng·h/mL implied. Number only.

Prompt line: Tell me AUC(0-inf) reported for CN(C)C(=N)N=C(N)N [Metformin, metformin]
Response line: 11400

###

Provide the recorded IC50 for the entries that follow.
# test system: human OCT3 (Homo sapiens, UniProt O75751)
# Sequence (O75751 1-556): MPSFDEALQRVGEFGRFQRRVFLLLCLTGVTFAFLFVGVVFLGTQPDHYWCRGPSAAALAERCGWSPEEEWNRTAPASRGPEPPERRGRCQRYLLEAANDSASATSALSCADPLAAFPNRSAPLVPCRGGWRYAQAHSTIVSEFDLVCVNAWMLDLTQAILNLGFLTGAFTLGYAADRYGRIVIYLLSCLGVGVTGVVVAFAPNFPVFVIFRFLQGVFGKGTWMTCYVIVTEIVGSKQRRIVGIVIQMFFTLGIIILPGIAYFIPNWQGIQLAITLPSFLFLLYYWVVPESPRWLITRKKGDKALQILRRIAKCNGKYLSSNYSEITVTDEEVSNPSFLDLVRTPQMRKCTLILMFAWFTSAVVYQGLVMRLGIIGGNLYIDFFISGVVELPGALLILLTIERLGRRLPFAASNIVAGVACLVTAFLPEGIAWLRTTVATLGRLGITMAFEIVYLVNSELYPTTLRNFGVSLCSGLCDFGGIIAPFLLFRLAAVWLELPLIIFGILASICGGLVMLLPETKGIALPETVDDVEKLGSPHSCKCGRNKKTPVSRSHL
# test details: Inhibition of [14C]-metformin uptake in HEK-OCT3 cells
The reply should be a number in µM, with the unit left off.

Prompt line: Hello, please tell me recorded IC50 for this one: CNC(=C[N+](=O)[O-])NCCSCc1csc(CN(C)C)n1 [nizatidine]
Response line: 41.1

Prompt line: Answer with reported IC50 of CNC(=C[N+](=O)[O-])NCCSCc1ccc(CN(C)C)o1 [ranitidine]
Response line: 93.5

The origin of these recorded values is paper PMC4792735.
